Numbers sourced from PubChem BioAssay (NCI).

Measured growth of individual entries
# System: SK-OV-3 ovarian
# method-notes: NCI-60 one-dose screen, 48 h (100 = growth as untreated, 0 = no growth, -100 = all killed)
# assay-conditions: 10 µM unless noted
# Protocol: Growth inhibition of the SK-OV-3 human tumor cell line is measured as a screen for anti-cancer activity. Cells are grown in 96 well plates and exposed to the test compound for 48 hours. Compounds are tested at a single concentration, which is 10^-5 M for most compounds. The reported endpoint is percent growth (GI% or GIPRCNT), where numbers from 0 - 100% represent growth inhibition, and numbers from -100% - 0 represent cell death. For example, a value of 40 represents 60% growth inhibition. […]
The panel holds about 83,000 compounds, 20% with a hit somewhere; the sample as a whole holds those more often. Calls of active or inactive are those of the source. The calls were made as follows: active = growth percent below 10; inactive = the rest.

>>> recorded_value("Cc1ccc2nc(NC(=O)CSc3nc(Nc4ccc([N+](=O)[O-])cc4)c(C#N)c(-c4ccccc4)n3)sc2c1")
"98.3% (inactive)"
>>> recorded_value("COC(=O)[C@]12CC[C@@H](C)[C@H](C)[C@@H]1C1=CC[C@@H]3[C@@]4(C)C(C=O)=C[C@@](C)(COC(C)=O)C4=CC[C@@]3(C)[C@]1(C)CC2")
"6.81% (active)"

Given item O=c1c2cc(F)ccc2sc2c(Nc3cccnc3)nc3ccccc3c12 , the value recorded as its growth is 93.9% (inactive)

Given item CCOC(=O)c1csc(NC(=O)COc2cccc(/C=C3\Oc4cc(OC)ccc4C3=O)c2)n1 , the value recorded as its growth is 101% (inactive)

* * *

# Tested on: NCI/ADR-RES ovarian
# method-notes: NCI-60 one-dose screen, 48 h
# assay-conditions: 10 µM unless noted
Compounds without any hit were thinned out: in the full panel of roughly 83,000, 20% have a hit. Calls of active or inactive are those of the source. Rule for the calls: active = growth percent below 10; inactive = the rest.
Respond with a class label; see Yes = active, No = inactive

Here are 5 compounds together with their reported answers.
>>> class_label("O=C(c1ccccc1)N1N=C(c2ccccc2)CC1c1nnc2n(Cc3ccccc3)c(=O)c3c4c(sc3n12)CCCC4 (stereo not drawn)")
"No"
>>> class_label("COc1cc(N=Nc2ccc(N)cc2)c(OC)cc1N=Nc1ccccc1.[Cl][Zn][Cl]")
"No"
>>> class_label("O=C1C=C[C@]2(C[C@@H](c3cccc(C(F)(F)F)c3)O[C@@H](c3cccc(C(F)(F)F)c3)O2)O1")
"No"
>>> class_label("N#Cc1c(-c2ccccc2)cc(-c2ccc(Nc3nc(Nc4ccc(F)cc4)nc(Nc4ccc(F)cc4)n3)cc2)nc1N")
"No"
>>> class_label("CCCc1cc2c(=O)c(C(=O)OC)c[nH]c2cc1N(CC)CC")
"No"

Prompt: Recorded test call requested for CC(=O)O[C@]1(C(C)=O)CCC2C3C[C@H](C)C4=CC(=O)CC[C@]4(C)C3CC[C@@]21C (stereo partly drawn)
Response: No

Prompt: Recorded test call requested for COCCN(C(=O)c1ccc(F)cc1F)c1c(N)n(Cc2ccccc2)c(=O)[nH]c1=O
Response: No

Prompt: Recorded test call requested for S=C(c1ccc2c(c1)OCO2)N1CCN(c2ccccc2Cl)CC1
Response: No

Prompt: Recorded test call requested for O=C(O)c1ccc2c(c1)CCC2
Response: No

* * *

# System: SF-268 CNS
# method-notes: NCI-60 one-dose screen, 48 h (100 = growth as untreated, 0 = no growth, -100 = all killed)
# assay-conditions: 10 µM unless noted
Compounds without any hit were thinned out: in the full panel of roughly 83,000, 20% have a hit.
Could you label it criterion met if measured growth is 90% or higher, and criterion not met otherwise?

>>> class_label("COc1ccc(-c2nc(SCCC(C)C)nc(N/N=C\\c3ccccc3O)c2C#N)cc1")
"criterion not met"
>>> class_label("C=C(C)[C@@H]1CC[C@]2(C(=O)NC3CCCCC3)CC[C@]3(C)[C@H](CC[C@@H]4[C@@]5(C)CCCNC(C)(C)[C@@H]5CC[C@]43C)[C@@H]12")
"criterion not met"
>>> class_label("Cc1cc(/C=C\\c2ccc3ccccc3[n+]2C)c(O)c2ncccc12")
"criterion not met"
>>> class_label("CC(C)(C)n1cc(-c2ccnc(NCCCNS(=O)(=O)c3ccccc3)c2)c(-c2ccccc2)n1")
"criterion met"
>>> class_label("COc1ccccc1N1C(=O)/C(=C/C2=Cc3ccccc3OC2)SC1=S")
"criterion met"

Prompt: Say whether COc1ccc(CNC(=O)C(O)C(Cc2ccccc2)NC(=O)c2[nH]c3ccccc3c(=O)c2C)cc1OC (centres undefined) shows growth of 90% or more.
Response: criterion met

Prompt: Say whether COC(=O)c1c2c(c[n+]([O-])c1C)C(=O)C=CC2=O shows growth of 90% or more.
Response: criterion not met

Prompt: Say whether O=C(O)c1ccc2c(c1)CCC2 shows growth of 90% or more.
Response: criterion met

Prompt: Say whether COC(=O)[C@]12CC[C@@H](C)[C@H](C)[C@@H]1C1=CC[C@@H]3[C@@]4(C)C(C=O)=C[C@@](C)(COC(=O)c5ccco5)[C@@H]4C(=O)C[C@@]3(C)[C@]1(C)CC2 shows growth of 90% or more.
Response: criterion not met

* * *

# Tested on: MDA-MB-231 breast
# method-notes: NCI-60 one-dose screen, 48 h
# assay-conditions: 10 µM unless noted
About 83,000 compounds went through this panel and 20% of them were active in at least one assay; those are over-represented in the sample as a whole. Activity calls are given as the source filed them. Rule for the calls: active = growth percent below 10; inactive = the rest.
Respond with a class label; see active, inactive

Here are 3 compounds together with their reported answers.
>>> class_label("CC(=O)[C@@H]1CC[C@]2(COS(=O)(=O)c3ccc(C)cc3)CC[C@]3(C)[C@H](CC[C@@H]4[C@@]5(C)CCCNC(C)(C)[C@@H]5CC[C@]43C)[C@@H]12")
"inactive"
>>> class_label("COC1=CC(=O)C[C@@H](C)[C@]12Oc1c(Cl)c(OC)cc(OC)c1C2=O")
"inactive"
>>> class_label("CCCCc1ccc(Nc2ccc(Nc3ccc(CCCC)cc3S(=O)(=O)O)c3c2C(=O)c2ccccc2C3=O)c(S(=O)(=O)O)c1")
"inactive"

Prompt: Recorded test call requested for O=c1ccn2nc3ccccc3c2[nH]1
Response: inactive

Prompt: Recorded test call requested for N#C/C(=C\c1ccc(-c2ccccc2F)o1)c1nc(-c2ccco2)cs1
Response: inactive

Prompt: Recorded test call requested for O=c1[nH][n+](-c2ccc(Cl)cc2)no1
Response: inactive

* * *

# System: COLO 205 colon
# method-notes: NCI-60 one-dose screen, 48 h
# assay-conditions: 10 µM unless noted
About 83,000 compounds went through this panel and 20% of them were active in at least one assay; those are over-represented in the sample as a whole. Calls of active or inactive are those of the source. Rule for the calls: active = growth percent below 10; inactive = the rest.
Respond with a class label; see active, inactive

>>> class_label("CCN(CC)CCn1nc2c3c(cccc3c1=O)-c1ccccc1-2")
"inactive"

Prompt: Recorded test call requested for Cn1cc2c(c1)-c1nc(Nc3ccccc3)ncc1CC2
Response: inactive

Prompt: Recorded test call requested for C=CCSc1nc2ccccc2cc1/C=N/O
Response: inactive

Prompt: Recorded test call requested for Cc1ccc(Cc2cnc(NC(=O)c3ccc4noc(-c5ccccc5)c4c3)s2)cc1
Response: inactive

Prompt: Recorded test call requested for COc1ccc(NC(=O)CSc2nnc(-c3cc(-c4ccc(S(N)(=O)=O)cc4)nc4ccccc34)n2-c2ccccc2)cc1
Response: inactive

Prompt: Recorded test call requested for O=c1ssc(Cl)c1-c1ccccc1
Response: inactive

Prompt: Recorded test call requested for O=c1ccn2nc3ccccc3c2[nH]1
Response: inactive

Prompt: Recorded test call requested for Cc1cccc(Cc2cnc(NC(=O)/C=C/c3ccco3)s2)c1
Response: active

Prompt: Recorded test call requested for O=C(c1ccc(Nc2nccc(NCCCCNc3ccnc4cc(Cl)ccc34)n2)cc1)N1CCCCC1
Response: active

Prompt: Recorded test call requested for N#CCN1C(=O)C2C3=C(CCCC3)SC2N=C1CN1CCCC1 (stereo unspecified)
Response: inactive

Prompt: Recorded test call requested for O=c1c2c3c(sc2nc(N/N=C/c2ccc(Br)cc2)n1Cc1ccccc1)CCCC3
Response: inactive

* * *

# Tested on: NCI/ADR-RES ovarian
# method-notes: NCI-60 one-dose screen, 48 h (100 = growth as untreated, 0 = no growth, -100 = all killed)
# assay-conditions: 10 µM unless noted
Compounds without any hit were thinned out: in the full panel of roughly 83,000, 20% have a hit. The source made the active and inactive calls. The calls were made as follows: active = growth percent below 10; inactive = the rest.
Measured growth of individual entries

>>> recorded_value("O=Cc1ccc(O)c2ncccc12")
"-1% (active)"
>>> recorded_value("c1coc(-c2c3ccc(=[N+]4CCCCC4)cc-3oc3cc(N4CCCCC4)ccc23)c1")
"-60.2% (active)"
>>> recorded_value("Cn1cc(-c2csc(-c3ccccc3)n2)c2cccnc21")
"-27.8% [100 µM] (active)"
>>> recorded_value("NS(=O)(=O)c1cnccc1Sc1ccncc1S(N)(=O)=O")
"98.9% (inactive)"
>>> recorded_value("COc1ccc(NC(=O)CSc2nnc(-c3cc(-c4ccccc4)nc4ccccc34)n2-c2ccccc2)cc1")
"91.8% (inactive)"
>>> recorded_value("CC(=O)OC1CCC2(C)C(=CC3C4CCC(=O)C4(C)CCC32)C1 (stereo unspecified)")
"104% (inactive)"
>>> recorded_value("Cc1nc2c(c(N3CCCc4ccccc43)n1)CCC2")
"9.25% (active)"
>>> recorded_value("O=C(c1ccccc1)c1c(/C=C/c2ccccc2)nc2ccccc2c1/C=C/c1ccc(Br)cc1")
"102% (inactive)"

Given item CN(Cc1cnc2nc(N)nc(N)c2n1)c1ccc(C(=O)N[C@@H](CCc2nn[nH]n2)c2nn[nH]n2)cc1 , the value recorded as its growth is 40.4% (inactive)

Given item CCN(CC)CCCCCCNc1cc(OC)c(Cl)c2cccnc12 , the value recorded as its growth is 79.3% (inactive)

Given item N#Cc1c(-c2cccc(Cl)c2)cc(-c2cccc(F)c2)[nH]c1=O , the value recorded as its growth is 98% (inactive)

Given item CC1=CN2C(=O)C3C4=C(CCCC4)SC3N=C2CN1c1c(C)cccc1C (stereo unspecified) , the value recorded as its growth is 99.6% (inactive)

Given item CNC(=O)CCN1CCN(CC/C=C2\c3ccccc3Sc3ccc(Cl)cc32)CC1 , the value recorded as its growth is 98.3% (inactive)

Given item O=C(c1ccccc1)c1c(/C=C/c2ccc(Cl)cc2)nc2ccccc2c1/C=C/c1cccs1 , the value recorded as its growth is 99.8% (inactive)

Given item CC(=O)C(C)Cc1cc2c(cc1C)C(C)(C)CCC2(C)C (stereo unspecified) , the value recorded as its growth is 98.8% (inactive)

Given item Cc1ccc(C(=O)CSc2nc(-c3ccc(Br)cc3)c(C#N)c(=O)[nH]2)cc1 , the value recorded as its growth is 97.5% (inactive)

Given item CCOc1c(C#N)nnc2c(C#N)c(NC(=O)c3ccccc3)nn12 , the value recorded as its growth is 100% (inactive)

Given item CCc1c2c(nc3ccc(OC(=O)NCc4ccc(B5OC(C)(C)C(C)(C)O5)cc4)cc13)-c1cc3c(c(=O)n1C2)COC(=O)[C@]3(O)CC , the value recorded as its growth is -6.58% (active)

Given item O=[N+]([O-])c1ccc(OCCO)cc1 , the value recorded as its growth is 97.8% (inactive)

Given item O=C(O)C1CCC(=O)N1C(=O)OCc1ccccc1 (stereo unspecified) , the value recorded as its growth is 98.4% (inactive)

Given item CSc1n(Cc2ccc3ccccc3c2)c(C)c[n+]1Cc1ccc2ccccc2c1 , the value recorded as its growth is 78.4% (inactive)
